Values compiled from paper PMC6270423.

Test system: T. cruzi Tulahuen CL2
PROCEDURE_TEXT: Antitrypanosomal activity, T. cruzi on MRC-5 cells, LacZ reporter
Type: cell-based, Trypanosoma cruzi
TEST_CONTEXT: Trypanosoma cruzi, TULAHUEN, MRC5, 168 h, 7 days
pIC50: −log10 of the molar value.
MEASUREMENT_LABEL: pIC50

Which pIC50 is listed for "COc1c(O)cc2oc3cc(O)c(CC=C(C)C)c(O)c3c(=O)c2c1CC=C(C)C" ?
5.05 to 5.10

---

PROCEDURE_TEXT: Cytotoxicity assay, resazurin
Assay type: cell-based
TEST_CONTEXT: human, MRC-5 SV2 fibroblast cells
MEASUREMENT_LABEL: IC50 at 72 h (µM)
Write the value in µM as a bare number.

Would you kindly share the measured IC50 at 72 h for COc1c(O)cc2oc3cc(O)c(CC=C(C)C)c(O)c3c(=O)c2c1CC=C(C)C [α-Mangostin] ?
7.5

---

Test system: Trypanosoma brucei Squib-427 strain
PROCEDURE_TEXT: Antitrypanosomal activity, T. brucei trypomastigotes, resazurin
Type: cell-based
TEST_CONTEXT: Trypanosoma brucei, 72 h
MEASUREMENT_LABEL: IC50

Dear colleague, I am looking for the recorded IC50 of the following molecule: "COc1c(O)cc2oc3cc(O)c(CC=C(C)C)c(O)c3c(=O)c2c1CC=C(C)C"
8 to 9 µM
